Reported IL-2 production, antigen-specific T lymphocyte stimulation test, 10 ug/ml, N = 1 by item:
Molecular target: T1, human LAG-3 on cells (HEK293-hLAG-3 stable cell line) (human, UniProt P18627 23-525)
T1 sequence: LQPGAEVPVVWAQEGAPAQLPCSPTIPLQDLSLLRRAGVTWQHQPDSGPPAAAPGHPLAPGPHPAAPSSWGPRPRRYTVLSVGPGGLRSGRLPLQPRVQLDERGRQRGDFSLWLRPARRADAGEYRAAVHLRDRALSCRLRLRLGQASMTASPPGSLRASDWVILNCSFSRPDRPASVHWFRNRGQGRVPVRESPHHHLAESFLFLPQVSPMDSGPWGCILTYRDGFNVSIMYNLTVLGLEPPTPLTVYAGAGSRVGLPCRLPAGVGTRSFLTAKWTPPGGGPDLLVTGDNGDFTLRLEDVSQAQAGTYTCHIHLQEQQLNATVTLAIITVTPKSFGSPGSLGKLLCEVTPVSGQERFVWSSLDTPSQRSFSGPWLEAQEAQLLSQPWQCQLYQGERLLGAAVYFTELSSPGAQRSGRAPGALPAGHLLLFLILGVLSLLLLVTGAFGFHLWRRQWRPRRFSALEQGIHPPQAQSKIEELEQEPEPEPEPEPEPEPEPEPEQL
Test: cell-based or functional assay
measure_name: IL-2 production, antigen-specific T lymphocyte stimulation test, 10 ug/ml, N = 1 (pg/mL)

[[record]]
binder = "556F6B8 mouse-human chimeric antibody (antibody, V domains shown, also called mAb123-556F6B8; 556F8B8) VH: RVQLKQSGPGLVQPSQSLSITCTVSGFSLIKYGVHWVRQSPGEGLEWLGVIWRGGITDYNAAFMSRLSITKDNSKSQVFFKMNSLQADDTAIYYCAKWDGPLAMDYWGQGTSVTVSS VL: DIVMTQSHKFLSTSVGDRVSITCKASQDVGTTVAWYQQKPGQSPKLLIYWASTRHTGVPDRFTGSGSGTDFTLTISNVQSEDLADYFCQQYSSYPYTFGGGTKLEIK"
unit_of_measure = "pg/mL"
observed_result = 584

[[record]]
binder = "105F1E10 mouse-human chimeric antibody (antibody, V domains shown, also called mAb009-105F1E10) VH: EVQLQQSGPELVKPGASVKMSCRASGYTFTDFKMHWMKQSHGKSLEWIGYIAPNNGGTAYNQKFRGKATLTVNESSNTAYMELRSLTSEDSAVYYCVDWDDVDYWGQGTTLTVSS VL: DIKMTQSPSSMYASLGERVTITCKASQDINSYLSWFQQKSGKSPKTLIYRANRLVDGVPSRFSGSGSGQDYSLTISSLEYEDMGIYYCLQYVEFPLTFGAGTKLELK"
unit_of_measure = "pg/mL"
observed_result = 850

